measured-on: human Toll-like receptor 2 (hTLR2) on HEK-Blue hTLR2 cells (human (printed as hTLR2), UniProt O60603 21-784)
Sequence (O60603 21-784): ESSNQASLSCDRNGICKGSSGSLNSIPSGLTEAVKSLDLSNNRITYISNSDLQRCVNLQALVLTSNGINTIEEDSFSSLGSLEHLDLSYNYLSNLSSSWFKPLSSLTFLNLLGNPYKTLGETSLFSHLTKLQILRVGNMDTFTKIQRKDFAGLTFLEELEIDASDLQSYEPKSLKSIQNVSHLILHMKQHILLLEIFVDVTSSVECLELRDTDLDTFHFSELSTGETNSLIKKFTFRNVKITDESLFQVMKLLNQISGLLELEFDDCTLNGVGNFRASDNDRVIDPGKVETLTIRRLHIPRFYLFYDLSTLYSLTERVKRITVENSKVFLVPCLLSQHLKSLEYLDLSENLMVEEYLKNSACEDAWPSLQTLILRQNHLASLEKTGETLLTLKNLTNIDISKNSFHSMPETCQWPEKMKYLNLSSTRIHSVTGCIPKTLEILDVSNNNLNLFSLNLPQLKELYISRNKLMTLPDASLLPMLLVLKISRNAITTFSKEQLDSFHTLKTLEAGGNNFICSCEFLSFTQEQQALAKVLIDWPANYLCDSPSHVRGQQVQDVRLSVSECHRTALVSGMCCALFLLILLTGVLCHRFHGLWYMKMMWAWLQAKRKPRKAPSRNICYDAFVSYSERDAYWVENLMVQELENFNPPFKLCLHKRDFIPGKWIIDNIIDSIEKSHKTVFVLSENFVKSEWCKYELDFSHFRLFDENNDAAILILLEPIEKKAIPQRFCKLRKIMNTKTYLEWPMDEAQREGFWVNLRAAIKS
procedure-text: cell-based or functional assay
measured-metric: EC50 (nM)

>>> value_observed("peptide SEQ ID NO: 3 (carboxyl terminal domain of SEQ ID NO: 1) (peptide) QLPIETPANNPEESDEADQAPWTPMPLEIAFQGDRESVLKAMNAITGMQDYLFTVNSIRIRNERMMPPPIANPAAAKPAAAQPATGAASLTPADEAAAPAAPAIQQVIKPYMGKEQVFVQVSLNLVHFNQPKAQEPSED")
25.9
>>> value_observed("protein of SEQ ID NO: 1 (AMUC_1100 of Akkermansia muciniphila without signal peptide, with Xa factor site and histidine tag) (ligand) MIVNSKRSELDKKISIAAKEIKSANAAEITPSRSSNEELEKELNRYAKAVGSLETAYKPFLASSALVPTTPTAFQNELKTFRDSLISSCKKKNILITDTSSWLGFQVYSTQAPSVQAASTLGFELKAINSLVNKLAECGLSKFIKVYRPQLPIETPANNPEESDEADQAPWTPMPLEIAFQGDRESVLKAMNAITGMQDYLFTVNSIRIRNERMMPPPIANPAAAKPAAAQPATGAASLTPADEAAAPAAPAIQQVIKPYMGKEQVFVQVSLNLVHFNQPKAQEPSEDIEGRHHHHHHDI")
35.1
>>> value_observed("AMNAITGMQDYLFTVNSIRIRNERMMPPPIANPAAAK [peptide SEQ ID NO: 2]")
24.9
>>> value_observed("peptide SEQ ID NO: 4 (amino terminal domain of SEQ ID NO: 1) (peptide) IVNSKRSELDKKISIAAKEIKSANAAEITPSRSSNEELEKELNRYAKAVGSLETAYKPFLASSALVPTTPTAFQNELKTFRDSLISSCKKKNILITDTSSWLGFQVYSTQAPSVQAASTLGFELKAINSLVNKLAECGLSKFIKVYRPQ")
65.9
